PROTOCOL_DETAILS: inhibitors of TNFa-induced NFkB p65 translocation, primary screen, imaging, HUVEC, MLSMR starter and 10KST1 sets (AID 438);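 also: compound added about 3h40 before a 20 min TNFalpha stimulation; signal is the nuclear over cytoplasmic p65 intensity ratio per well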
CONDITIONS: HUVEC TNFa-induced p65 nuclear translocation; at 2 µM, hits give high values, 0% TNFa-plus-vehicle, 100% no-TNFa wells
METRIC_NAME: inhibition (%)
State just the number; it will be interpreted in %.

MOLECULE	inhibition, %
Cc1oc(C(=O)O)cc1CSCc1cc(C(=O)O)c(C)o1	-9.3
Cc1ccc(N=Cc2ccc(O)cc2O)cc1F	-13.8
COC(=O)c1ccc(CSc2nnc(-c3ccncc3)o2)o1	-2.2
Brc1ccc(-c2csc(/N=C/N3CCOCC3)n2)cc1	-3.6
Cc1ccc(N2C(=O)c3oc4ccccc4c(=O)c3C2c2cccc(O)c2)nc1 (centres undefined)	6.1

inhibition recorded for this molecule, `COc1ccccc1NC(=O)c1oc2ccccc2c1NC(=O)c1cc(OC)c(OC)c(OC)c1` , is -7.6

inhibition recorded for this molecule, `Cn1c(-c2ccc(C(C)(C)C)cc2)n[nH]c1=S` , is -5.8

inhibition recorded for this molecule, O=C1c2ccccc2NC2CCCCCN12 (centres undefined) , is -2.1

inhibition recorded for this molecule, `N#Cc1cnc(SCCc2ccccc2)nc1N` , is -13.1

inhibition recorded for this molecule, `COc1ccc(CCn2c(NCCCN3CCOCC3)nc3c2c(=O)[nH]c(=O)n3C)cc1` , is 2.1

inhibition recorded for this molecule, `CCC(=O)N1Cc2ccccc2-c2ccccc2C1=O` , is 3

inhibition recorded for this molecule, `CC(C)(NC(=O)N1CCCC1)c1cccc(C(C)(C)NC(=O)N2CCCC2)c1` , is -1.8

inhibition recorded for this molecule, N#CC(C(=O)NCCc1ccccc1)c1nc2ccccc2nc1N1CCOCC1 (centres undefined) , is 5.7

inhibition recorded for this molecule, `Cc1ccccc1Nc1nc(N)nc(CSCc2c(C)noc2C)n1` , is -15.8

The measurements presented in this section are drawn from PubChem BioAssay.
